experiment: drug combination growth inhibition, ovarian cancer – cell-based, oncology-focused library, rucaparib conditional, profiling panel (AID 1508598); conditions: patient-derived ovarian cancer cells, CellTiter-Glo viability, 144 h; at 0.313 µM; OCI-P5x cells; with rucaparib 20 µM; 100% = cells with rucaparib alone
Activity calls are given as the source filed them.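 The calls were made as follows: active = normalized viability below 100% at a tested concentration; inactive = the rest.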
Your response should consist of one outcome taken from active, inactive

INPUT: Fill in: this test's call for CC(=O)[C@]1(O)Cc2c(O)c3c(c(O)c2[C@H](O[C@H]2C[C@H](N)[C@H](O)[C@H](C)O2)C1)C(=O)c1ccccc1C3=O is ___
OUTPUT: active

INPUT: Fill in: this test's call for CC(=O)OCC(=O)[C@]1(O)[C@H](C)C[C@H]2[C@@H]3CCC4=CC(=O)C=C[C@]4(C)[C@]3(F)[C@H](O)C[C@@]21C is ___
OUTPUT: inactive

INPUT: Fill in: this test's call for CO[C@H]1C[C@@H]2CC[C@@H](C)[C@@](O)(O2)C(=O)C(=O)N2CCCC[C@H]2C(=O)O[C@H]([C@@H](C)C[C@@H]2CC[C@@H](OCCO)[C@H](OC)C2)CC(=O)[C@H](C)/C=C(\C)[C@H](O)[C@@H](OC)C(=O)[C@H](C)C[C@H](C)/C=C/C=C/C=C/1C is ___
OUTPUT: active

Others:
INPUT: Fill in: this test's call for O=C(O)c1cc(I)ccc1NC(=O)[C@H](Cc1ccccc1)NCc1ccccc1 is ___
OUTPUT: active

INPUT: Fill in: this test's call for C[C@H](O[C@H]1OCCN(Cc2n[nH]c(=O)[nH]2)[C@H]1c1ccc(F)cc1)c1cc(C(F)(F)F)cc(C(F)(F)F)c1 is ___
OUTPUT: inactive

INPUT: Fill in: this test's call for O=c1[nH]c(=O)n([C@@H]2C[C@H](O)[C@@H](CO)O2)cc1F is ___
OUTPUT: inactive

INPUT: Fill in: this test's call for C[C@]12CC[C@H]3c4ccc(O)cc4CC[C@H]3[C@@H]1CC[C@H]2O is ___
OUTPUT: inactive

###

experiment: drug combination growth inhibition, ovarian cancer – cell-based, oncology-focused library, rucaparib conditional, profiling panel (AID 1508598); details: patient-derived ovarian cancer cells, CellTiter-Glo viability, 144 h; at 1.25 µM; OCI-C5x cells; without rucaparib; active compounds read low
This section presents molecules with their documented viability values.
Quick note: give the figure in %, leave out the unit.

Previously resolved entries follow.
INPUT: Which viability is reported for this molecule? CN(C)CCOc1ccc(-c2nc(-c3ccc4c(c3)CCC4=NO)c(-c3ccncc3)[nH]2)cc1
OUTPUT: 153

INPUT: Which viability is reported for this molecule? CCOc1ccc(Cc2cc([C@@H]3O[C@H](CO)[C@@H](O)[C@H](O)[C@@H]3O)ccc2Cl)cc1
OUTPUT: 118

INPUT: Which viability is reported for this molecule? Cc1[nH]c(C=C2C(=O)Nc3ccc(S(=O)(=O)N(C)c4cccc(Cl)c4)cc32)c(C)c1C(=O)N1CCN(C)CC1
OUTPUT: 151

Others:
INPUT: Which viability is reported for this molecule? Nc1nc(F)nc2c1ncn2[C@H]1O[C@H](CO)[C@@H](O)[C@@H]1O
OUTPUT: 82.4

INPUT: Which viability is reported for this molecule? Cc1cc([N+](=O)[O-])ccc1NS(=O)(=O)c1cc(Cl)ccc1Cl
OUTPUT: 123

INPUT: Which viability is reported for this molecule? c1ccc(Cn2c(-c3ccc(OC[C@H](C4CCNCC4)n4c(-c5ccccc5)nc5ccccc54)cc3)nc3ccccc32)cc1
OUTPUT: 131

INPUT: Which viability is reported for this molecule? CC(C)(C)C(=O)Nc1ccc2c(c1)C(=O)C(=O)c1ccccc1-2
OUTPUT: 113

INPUT: Which viability is reported for this molecule? CN(C)CCSSCCNC(=O)C1CCN(C(=O)CSc2ccc(Cl)cc2)CC1
OUTPUT: 112

INPUT: Which viability is reported for this molecule? C[C@H]1C[C@H]2[C@@H]3CCC4=CC(=O)C=C[C@]4(C)[C@@H]3C(=O)C[C@]2(C)[C@]1(O)C(=O)CO
OUTPUT: 129

INPUT: Which viability is reported for this molecule? CC[C@]1(O)C[C@@H]2CN(CCc3c([nH]c4ccccc34)[C@@](C(=O)OC)(c3cc4c(cc3OC)N(C=O)[C@H]3[C@@](O)(C(=O)OC)[C@H](OC(C)=O)[C@]5(CC)C=CCN6CC[C@@]43[C@@H]65)C2)C1
OUTPUT: 23.5

INPUT: Which viability is reported for this molecule? COc1cc2c(cc1O)CC[C@@H]1[C@H]2CC[C@]2(C)[C@H](O)CC[C@@H]12
OUTPUT: 96.8

INPUT: Which viability is reported for this molecule? CC[C@]1(O)C[C@@H]2CN(CCc3c([nH]c4ccccc34)[C@@](C(=O)OC)(c3cc4c(cc3OC)N(C=O)[C@@H]3C45CCN4CC=C[C@](CC)([C@H]45)[C@H](OC(C)=O)[C@]3(O)C(=O)OC)C2)C1 (some centres undefined)
OUTPUT: 21.4

INPUT: Which viability is reported for this molecule? CC1(C)O[C@@H]2C[C@H]3[C@@H]4CCC5=CC(=O)C=C[C@]5(C)[C@]4(F)[C@H](O)C[C@]3(C)[C@@]2(C(=O)CO)O1
OUTPUT: 108

INPUT: Which viability is reported for this molecule? C[C@@]12CC[C@H]3c4ccc(O)cc4C[C@@H](CCCCCCCCCS(=O)CCCC(F)(F)C(F)(F)F)[C@H]3[C@@H]1CC[C@@H]2O (some centres undefined)
OUTPUT: 112

INPUT: Which viability is reported for this molecule? O=C(/C=C/c1ccc2ccccc2n1)c1ccncc1
OUTPUT: 124

INPUT: Which viability is reported for this molecule? COc1ccccc1-c1cc(Nc2cccc(CS(N)(=O)=O)c2)ncn1
OUTPUT: 110

INPUT: Which viability is reported for this molecule? O=C1[C@H](CC[C@H](O)c2ccc(F)cc2)[C@H](c2ccc(O)cc2)N1c1ccc(F)cc1
OUTPUT: 111

INPUT: Which viability is reported for this molecule? COc1cc([C@H]2c3cc4c(cc3[C@@H](O[C@@H]3O[C@@H]5CO[C@@H](c6cccs6)O[C@H]5[C@H](O)[C@H]3O)[C@H]3COC(=O)[C@H]23)OCO4)cc(OC)c1O
OUTPUT: 21.2

INPUT: Which viability is reported for this molecule? Cc1cc2c(C(=O)NC[C@H](C)c3ccccc3)c(O)c(O)cc2c(O)c1-c1c(C)cc2c(C(=O)NC[C@H](C)c3ccccc3)c(O)c(O)cc2c1O
OUTPUT: 106

INPUT: Which viability is reported for this molecule? CC(C)(C(=O)NCC(F)(F)C(F)(F)F)C(=O)N[C@H]1C(=O)Nc2ccccc2-c2ccccc21
OUTPUT: 113

INPUT: Which viability is reported for this molecule? CO[C@H]1C[C@@H]2CC[C@@H](C)[C@@](O)(O2)C(=O)C(=O)N2CCCC[C@H]2C(=O)O[C@H]([C@@H](C)C[C@@H]2CC[C@@H](OCCO)[C@H](OC)C2)CC(=O)[C@H](C)/C=C(\C)[C@H](O)[C@@H](OC)C(=O)[C@H](C)C[C@H](C)/C=C/C=C/C=C/1C
OUTPUT: 103

INPUT: Which viability is reported for this molecule? CC(C)CC(CC(=O)NO)C(=O)N[C@@H](Cc1ccc2ccccc2c1)C(=O)N[C@@H](C)C(=O)NCCN (some centres undefined)
OUTPUT: 112

INPUT: Which viability is reported for this molecule? COc1cccc2c1C(=O)c1c(O)c3c(c(O)c1C2=O)C[C@@](O)(C(C)=O)C[C@H]3O[C@H]1C[C@H](N)[C@H](O)[C@H](C)O1
OUTPUT: 1.21

INPUT: Which viability is reported for this molecule? C[C@]12CC[C@H]3c4ccc(O)cc4CC[C@H]3[C@@H]1CCC2=O
OUTPUT: 63.5

INPUT: Which viability is reported for this molecule? COc1ccc(C2=N[C@H](c3ccc(Cl)cc3)[C@@H](c3ccc(Cl)cc3)N2C(=O)N2CCNC(=O)C2)c(OC(C)C)c1
OUTPUT: 102
